tested on: MIWI (PIWIL1) piRISC loaded with L1MC piRNA (30 nt); test: pre-steady-state target cleavage rate (min^-1); higher = faster piRNA-guided slicing of the target; settings: guide: L1MC piRNA 5'p-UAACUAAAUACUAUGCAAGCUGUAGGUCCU; auxiliary factor: 500 nM mouse GTSF1;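 also: 1 nM active piRISC with 0.1 nM target library at 33 °C single turnover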
Whole data set: some 8,200 sequences, median “pre-steady-state target cleavage rate” near 0.024, cut for the highest 2% near 1.3. This is one part of a sample in which the highest values are shown more often than they occur.

# biosequence, pre-steady-state target cleavage rate
records = [
    ("UCCUGGAUGAGCUUGCAUAGUGUUUAGUUA", 0.708),
    ("UCCUGGUACAGCUUGCAUAGUAUUCUAGUUA", 0.442),
    ("UCCUGGAUGUGCUUGCAUAGUAUUUAGAUA", 0.118),
    ("UGGACGUAGAGCUUGCAUAGUAUUUAGUUA", 1.29),
    ("UCGACGUUCAGCUUGCAUAGUAUUUAGUUA", 1.3),
    ("AGGACGUUCAGCUUGCAUAGUAUUUAGUUA", 1.35),
    ("UGGACCUACAGCUUGCUUACUAUUUAGUUA", 0.493),
    ("UCCUGGAUCAGGUUGCAAAGUAUUUAGUUA", 0.391),
    ("AGGACCUACGAGCUUGCAUAGUAUUUAGUUA", 0.726),
    ("UCCUGGAUGUCCUUACAUAGUAUUUAGUUA", 0.0237),
    ("UCGACCUACAGCUUGCAUAGUAUUAUGUAA", 0.228),
    ("UCCACGUUCAGCUUGCAUAGUAUUUAGUUA", 1.42),
    ("UCCAGCUACAGCUUGCAUAGUAUUUAGUUA", 0.682),
    ("UCGACCUACAGCUUGGAUAGUAUUUACAAA", 0.179),
    ("UCCACCUACAGCUUGCAAUCUAUUUAGUUA", 0.194),
]

----------
system: MIWI (PIWIL1) piRISC loaded with L1MC piRNA (30 nt); test: pre-steady-state target cleavage rate (min^-1); higher = faster piRNA-guided slicing of the target; settings: guide: L1MC piRNA 5'p-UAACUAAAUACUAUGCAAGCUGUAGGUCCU; auxiliary factor: none (no GTSF1);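 also: 1 nM active piRISC with 0.1 nM target library at 33 °C single turnover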
The full ranking holds about 8,200 sequences; the median of “pre-steady-state target cleavage rate” is about 0.024, and the highest 2% start at about 1.3. Only a selection was taken, and the highest values are over-represented in it overall.

# biosequence, pre-steady-state target cleavage rate
data = [
    ("UCCACCUUCAGCUUGGAUAGUAUUUAGUUA", 0.0456),
    ("AGGACCAACAGCUUGCUUAGUAUUUAGUUA", 0.0459),
    ("UCCUGCUUCAGCUUGGAUAGUAUUUAGUUA", 0.049),
    ("UGGACCUUCAGCUUGGAUAGUAUUUAGUUA", 0.0597),
]

----------
tested on: MIWI (PIWIL1) piRISC loaded with L1MC piRNA (30 nt); test: pre-steady-state target cleavage rate (min^-1); MIWI and MILI are mouse PIWI proteins and EfPiwi is from a freshwater sponge; tags in brackets are library labels; higher = faster piRNA-guided slicing of the target; conditions: guide: L1MC piRNA 5'p-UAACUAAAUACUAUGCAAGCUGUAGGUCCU; auxiliary factor: 500 nM mouse GTSF1;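 also: 1 nM active piRISC with 0.1 nM target library at 33 °C single turnover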
Over roughly 8,200 sequences, “pre-steady-state target cleavage rate” has its median near 0.024; the highest 2% begin near 1.3. The full list was thinned out, with the highest values kept by preference.

# biosequence, pre-steady-state target cleavage rate
rows = [
    ("UCGACCUUCAGCUUGGAUAGUAUUUAGUUA", 1.49),
    ("AGGACCUACAGCUUGGAUAGUAUUUAGUUA", 1.67),
    ("UCCUCCUUCAGCUUGGAUAGUAUUUAGUUA", 1.19),
    ("UCCUGCUGCAGCUUGCAUAGUAUUUAGUUA", 1.27),
    ("UCCACCUAGAGCUUGCAUAGUAUUUAGAUA", 0.178),
    ("UCCUGGAUGUCGUAGCAUAGUAUUUAGUUA", 0.0153),
    ("UCCUCCAUGAGCUUGCAUAGUAUUUAGUAA", 0.471),
    ("UCCAUCUACAGCUUGCAUAGUAUUUAGUUA", 0.731),
    ("UGCACCUACAGGUUGCAUAGUAUUUAGUUA", 0.859),
    ("UGGACCUACAGGUUGGAUAGUAUUUAGUUA", 1.33),
    ("UCCUGGUACAGCUUGCAUAGUGAUUUAGUUA", 0.0476),
    ("UCCUGGAACAGCGUUGCAUAGUAUUUAGUUA", 0.939),
    ("UCCACCUACAGCUUGCAAAGUAUAUAGUUA", 0.468),
    ("UCCAGGAACAGCUUGCAUAGUAUUUAGUAA", 0.57),
    ("UCGACCUACAGGUUGGAUAGUAUUUAGUUA", 1.16),
    ("AGGACCUACAGGUUGGAUAGUAUUUAGUUA", 1.24),
    ("UCGACCUUCAGCUUCCAUAGUAUUUAGUUA", 0.0473),
    ("UCCACCUACAGCUUGGAUAGUAUUUAGUAA", 0.747),
    ("UCCUGCUUCAGCUUGGAUAGUAUUUAGUUA", 1.18),
    ("UCCUGCUUGUGCUUGCAUAGUAUUUACAAA", 0.0637),
    ("UCCUGGAUCAGCAUGCAUAGUAUUUAGAUA", 0.375),
    ("UCCUGGUACAGCUUACAUAGUAUUUAGUUA", 0.749),
    ("UGGACCUACAGCUUGGAUAGUAUUUAGUUA", 1.65),
    ("UCCACCUACAGCUUGCAUAGUAUCUUAGUUA", 0.709),
    ("UCCUGGAUGUGCAUUGCAUAGUAUUUAGUUA", 0.223),
    ("UCCUGGAUGAGCUUGCUAUGUAUUUAGUUA", 0.00494),
    ("UCCUGCUACAGCUUGCAUUAGUAUUUAGUUA", 0.0188),
    ("UCCUGCUACAGCUUGCAUUGAAUUUAGUUA", 0.168),
    ("UCCACCUACAGCAAGCAUAGUAUUUAGAAA", 0.243),
    ("UCGACCUACACGUUGCAUAGUAUUUUCAAA", 0.224),
    ("AGGACCUUCAGCUUGGAUAGUAUUUAGUUA", 1.48),
    ("AGGACCUACAGCUUGCAUAGUAAAAACAAA", 0.268),
    ("UCCUGGUACACCUUGCAUAGUUUUUAGUUA", 0.0764),
    ("UGGACCUUCAGCUUGGAUAGUAUUUAGUUA", 1.59),
    ("UCGACCUACAGCUUGCAUAGAUUUUAGUAA", 0.124),
    ("UGGAUCUACAGCUUGCAUAGUAUUUAGUUA", 1.57),
    ("UGGAGGAACAGCUUGCAUAGUAUUUAGUAA", 0.754),
    ("UCCUGGUACAGCUUGGUUAGUAUUUAGUAA", 0.412),
    ("UGGACCUGCAGCUUGCAUAGUAUUUAGUUA", 1.57),
    ("AGGACCUACUGCUUGCAUAGUAUUUAGAUA", 0.471),
    ("UCCACCUACAGUUUGCAUAGUAUUUAGUUA", 0.892),
    ("UCCUGGAACAGCUUGGUAAGUAUUUAGUUA", 0.00797),
    ("UCGACCUACAUGCUUGCAUAGUAUUUAGUUA", 0.913),
    ("UCCACCUAGUCCUUGCAUAGUAUUUAGUAA", 0.142),
    ("AGGACCUACAGCUUGGAUAGUAUUUAGUAA", 1.02),
    ("UCGAGCUAGAGCUUGCAUAGUAUUUAGUUA", 0.962),
    ("UCCUGGAACAGCUUGCAUAGAUUUUAGUAA", 0.0419),
]
